system: Phakopsora pachyrhizi; test: Protective control of soy bean rust on soy beans (Phakpa P1), green house; type: in vivo; details: 150ppm spray, inoculated 1 day after treatment, % diseased leaf area, untreated control 70
Assay Endpoint: Disease (%) at 150ppm Phakpa P1
Please respond with the number in % and leave the unit unwritten.

Illustrative cases are given below, each with its answer.
Reported Disease (%) at 150ppm Phakpa P1 of CC(n1ncnc1S)C(O)(Cc1ccccc1Cl)C1(Cl)CC1 (stereo not shown) : 0

Reported Disease (%) at 150ppm Phakpa P1 of CC(c1ccccc1Cl)C(O)(C(C)n1cncn1)C1(Cl)CC1 (stereo not shown) : 10

Reported Disease (%) at 150ppm Phakpa P1 of CC(n1cncn1)C(O)(Cc1ccccc1Cl)C1(Cl)CC1 (stereo not shown) : 0

Below: the item to evaluate.
Reported Disease (%) at 150ppm Phakpa P1 of CC(n1cncn1)C(O)(Cc1ccc(Oc2ccc(Cl)cc2)cc1Cl)C1(Cl)CC1 (stereo not shown) : 15
